test: chemical genetic growth profiling, strain panel (AID 1159580);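 further: tested at 20 µM; growth read once vehicle control cultures reached saturation at 30 °C; 1 = growth at the plate median or of vehicle wells; lower values mean less growth of the strain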
reported.conditions: S. cerevisiae deletion strains, growth OD, locus YPL256C, strain CLN2, stronger effect = lower value
Screen size: about 5,500 compounds; about 2,000 (36%) were called active. Not shown: some 18% with an inconclusive outcome. Some of the results follow.
Threshold 0.9. normalized growth below it: Yes. normalized growth at it or above: No.

Reference set, count: 6
>>> class_name("COc1cc(-c2coc3cc(O)c(OC)c(O)c3c2=O)cc(O)c1OC")
"No"
>>> class_name("OC[C@H]1O[C@H](OCCCc2ccc(O)cc2)[C@H](O)[C@@H](O)[C@@H]1O")
"No"
>>> class_name("CCCCCCc1ccc(O)cc1O")
"Yes"
>>> class_name("O=C1Nc2ccccc2/C1=N/N=C\\c1cc(Br)cc(Br)c1O")
"Yes"
>>> class_name("CN1CCOC(c2ccccc2)c2ccccc2C1 (stereo unspecified)")
"No"
>>> class_name("COc1ccc(-c2cc(=O)c3c(OC(C)=O)cc(OC(C)=O)cc3o2)cc1")
"Yes"

For the next question, use this compound.
[in] Input Cc1ccc(C(O)(c2ccccc2)c2ccccc2)c2ccccc12 ; condition: normalized growth strictly below 0.9. Does it hold?
[out] No

* * *

test: chemical genetic growth profiling, strain panel (AID 1159580);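 further: tested at 20 µM; growth read once vehicle control cultures reached saturation at 30 °C; 1 = growth at the plate median or of vehicle wells; lower values mean less growth of the strain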
reported.conditions: S. cerevisiae deletion strains, growth OD, locus YBR023C, strain chs3, stronger effect = lower value
Screen size: about 5,500 compounds; about 2,000 (36%) were called active. About 18% were inconclusive and are not listed. The list shows a part of the results.
quantity.kind: normalized growth
Please respond with just the number, no unit label.

Below, 3 molecules whose answers are already recorded.
>>> recorded_measurement("NCCc1ccc(O)cc1")
0.98
>>> recorded_measurement("CCCCCCc1ccc(O)cc1O")
0.89
>>> recorded_measurement("CC1(C)O[C@@H]2CC3C4C[C@H](F)C5=CC(=O)C=CC5(C)C4C(O)CC3(C)[C@]2(C(=O)CO)O1 (some centres undefined)")
0.987

[in] I am curious: what normalized growth value has been reported for CC1(C)O[C@@H]2CC3C4C[C@H](F)C5=CC(=O)C=C[C@]5(C)[C@@]4(F)[C@@H](O)C[C@]3(C)[C@]2(C(=O)CO)O1 (some centres undefined) ?
[out] 1.03

[in] I am curious: what normalized growth value has been reported for C[n+]1cc2c3c(ccc2c2ccc4cc5c(cc4c21)OCO5)OCO3 ?
[out] 0.592

[in] I am curious: what normalized growth value has been reported for CN1CCOC(c2ccccc2)c2ccccc2C1 (centres undefined) ?
[out] 0.974

[in] I am curious: what normalized growth value has been reported for O=C1CN2Cc3c(ccc(Cl)c3Cl)N=C2N1 ?
[out] 0.983

[in] I am curious: what normalized growth value has been reported for CC(=O)O[C@H]1C[C@H](O[C@H]2[C@@H](O)C[C@H](O[C@H]3[C@@H](O)C[C@H](O[C@H]4CC[C@@]5(C)C(CCC6C5C[C@@H](O)[C@]5(C)[C@@H](C7=CC(=O)OC7)CC[C@]65O)C4)O[C@@H]3C)O[C@@H]2C)O[C@H](C)[C@H]1O[C@@H]1O[C@H](CO)[C@@H](O)[C@H](O)[C@H]1O (some centres undefined) ?
[out] 0.999

[in] I am curious: what normalized growth value has been reported for NCCc1ccc(O)c(O)c1 ?
[out] 1
